Biological target: AChBP (Ls) (Lymnaea stagnalis)
Sequence (P58154 20-229): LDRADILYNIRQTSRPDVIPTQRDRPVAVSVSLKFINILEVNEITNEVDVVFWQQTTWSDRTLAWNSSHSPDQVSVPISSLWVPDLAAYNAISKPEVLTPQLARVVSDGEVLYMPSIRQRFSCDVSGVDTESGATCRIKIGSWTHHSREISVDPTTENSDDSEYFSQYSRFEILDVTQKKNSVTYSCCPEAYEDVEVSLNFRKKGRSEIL
Assay type: binding
Details: read-out: Kd, [3H]Epibatidine
Quick reference for Kd among some compounds

1. COc1cc2c(cc1OC)C13CCN4CC5=CCOC(CC(=O)O)C(C5CC41)C3N2 (centres unmarked)	112 nM

Now, please, on to the next compound.
Reported Kd for N#Cc1ccc(/C=C/C(=O)O)cc1 : what is it?
793 nM

###

Target: (UniProt Z9ZW91H0F0)
Sequence (Z9ZW91H0F0 1-203): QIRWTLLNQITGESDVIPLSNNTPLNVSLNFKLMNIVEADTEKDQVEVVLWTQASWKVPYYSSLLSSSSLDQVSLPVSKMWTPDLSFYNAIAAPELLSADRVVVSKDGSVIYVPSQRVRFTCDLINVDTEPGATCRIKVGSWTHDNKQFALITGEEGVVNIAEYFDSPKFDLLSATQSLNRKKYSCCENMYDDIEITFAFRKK
Assay: [3H]epibatidine radioligand competition SPA, Bt AChBP
endpointLabel: Kd (nM)
Entry rule: numbers only, all in nM.

I have this compound here, COc1cc2c3cc1Oc1cc(ccc1O)C[C@@H]1c4c(cc(OC)c(O)c4Oc4ccc(cc4)C[C@@H]3N(C)CC2)CC[N+]1(C)C [NSC36387, d-tubocurarine, reference compound] , and I need its recorded Kd.
37.5
